target: Human immunodeficiency virus type 1 integrase (Human immunodeficiency virus 1, UniProt Q7ZJM1); assay: Inhibitory concentration against HIV-1 integrase mediated strand transfer reaction
Sequence (Q7ZJM1 whole entry): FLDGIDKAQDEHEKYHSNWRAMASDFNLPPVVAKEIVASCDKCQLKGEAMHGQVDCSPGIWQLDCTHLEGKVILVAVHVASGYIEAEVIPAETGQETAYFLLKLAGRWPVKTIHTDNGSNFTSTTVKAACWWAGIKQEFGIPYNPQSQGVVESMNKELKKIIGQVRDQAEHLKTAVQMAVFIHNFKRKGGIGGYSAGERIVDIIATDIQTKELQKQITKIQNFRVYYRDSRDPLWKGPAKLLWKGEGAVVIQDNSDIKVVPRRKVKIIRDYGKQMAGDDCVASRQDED
Recorded IC50 determines the label; the label ranges are lo (below 2 µM), mid (2 µM to below 10 µM), hi (10 µM or more)

| entry smiles | discrete label |
| --- | --- |
| COC(=O)C(=O)CC(=O)c1cn(C)c2cc3c(cc12)OCO3 | hi |
| COC(=O)C(=O)CC(=O)c1cc2cc3c(cc2n1Cc1ccccc1)OCO3 | hi |
| O=C(O)C(=O)/C=C(\O)c1cn(Cc2ccccc2)c2ccccc12 | lo |
| COC(=O)C(=O)CC(=O)c1cc2cc3c(cc2n1C)OCO3 | hi |
| CCn1cc(/C(O)=C/C(=O)C(=O)O)c2ccccc21 | mid |
| Cn1cc(/C(O)=C/C(=O)C(=O)O)c2cc3c(cc21)OCO3 | mid |
| CCn1cc(C(=O)CC(=O)C(=O)OC)c2ccccc21 | hi |
| CCn1c(C(=O)CC(=O)C(=O)OC)cc2cc3c(cc21)OCO3 | hi |
| Cn1c(/C(O)=C/C(=O)C(=O)O)cc2ccccc21 | mid |
| CCn1c(/C(O)=C/C(=O)C(=O)O)cc2cc3c(cc21)OCO3 | mid |
| O=C(O)C(=O)/C=C(\O)c1cc2ccccc2n1Cc1ccccc1 | lo |
| COC(=O)C(=O)CC(=O)c1cc2ccccc2n1C | hi |
| CCn1c(/C(O)=C/C(=O)C(=O)O)cc2ccccc21 | lo |
| CCn1cc(/C(O)=C/C(=O)C(=O)O)c2cc3c(cc21)OCO3 | mid |

----------
target: Human immunodeficiency virus type 1 integrase (Human immunodeficiency virus 1); test: Selectivity index against HIV-1 integrase
endpoint: Selectivity index

| entry smiles | system | result |
| --- | --- | --- |
| CCn1c(/C(O)=C/C(=O)C(=O)O)cc2ccccc21 | Human immunodeficiency virus type 1 integrase (Human immunodeficiency virus 1) | 10 |
| CCn1c(/C(O)=C/C(=O)C(=O)O)cc2cc3c(cc21)OCO3 | Human immunodeficiency virus type 1 integrase (Human immunodeficiency virus 1) | 11 |
| Cn1cc(/C(O)=C/C(=O)C(=O)O)c2ccccc21 | Human immunodeficiency virus type 1 integrase (Human immunodeficiency virus 1) | 50 |
| COC(=O)C(=O)CC(=O)c1cc2cc3c(cc2n1C)OCO3 | Human immunodeficiency virus type 1 integrase (Human immunodeficiency virus 1) | 2 |
| CCn1cc(/C(O)=C/C(=O)C(=O)O)c2ccccc21 | Human immunodeficiency virus type 1 integrase (Human immunodeficiency virus 1) | 31 |
| O=C(O)C(=O)/C=C(\O)c1cc2cc3c(cc2n1Cc1ccccc1)OCO3 | Human immunodeficiency virus type 1 integrase (Human immunodeficiency virus 1) | 17 |
| CCn1cc(C(=O)CC(=O)C(=O)OC)c2ccccc21 | Human immunodeficiency virus type 1 integrase (Human immunodeficiency virus 1) | > 3.8 |
| O=C(O)C(=O)/C=C(\O)c1cn(Cc2ccccc2)c2ccccc12 | Human immunodeficiency virus type 1 integrase (Human immunodeficiency virus 1) | 12 |
| Cn1c(/C(O)=C/C(=O)C(=O)O)cc2ccccc21 | Human immunodeficiency virus type 1 integrase (Human immunodeficiency virus 1) | 8 |
| Cn1c(/C(O)=C/C(=O)C(=O)O)cc2cc3c(cc21)OCO3 | Human immunodeficiency virus type 1 integrase (Human immunodeficiency virus 1) | 5 |
| Cn1cc(/C(O)=C/C(=O)C(=O)O)c2cc3c(cc21)OCO3 | Human immunodeficiency virus type 1 integrase (Human immunodeficiency virus 1) | 33 |
| COC(=O)C(=O)CC(=O)c1cn(C)c2cc3c(cc12)OCO3 | Human immunodeficiency virus type 1 integrase (Human immunodeficiency virus 1) | > 1.6 |
| CCn1c(C(=O)CC(=O)C(=O)OC)cc2cc3c(cc21)OCO3 | Human immunodeficiency virus type 1 integrase (Human immunodeficiency virus 1) | 1.3 |
| COC(=O)C(=O)CC(=O)c1cc2cc3c(cc2n1Cc1ccccc1)OCO3 | Human immunodeficiency virus type 1 integrase (Human immunodeficiency virus 1) | 7 |
| CCn1cc(/C(O)=C/C(=O)C(=O)O)c2cc3c(cc21)OCO3 | Human immunodeficiency virus type 1 integrase (Human immunodeficiency virus 1) | 15 |
| O=C(O)C(=O)/C=C(\O)c1cc2ccccc2n1Cc1ccccc1 | Human immunodeficiency virus type 1 integrase (Human immunodeficiency virus 1) | 20 |
| COC(=O)C(=O)CC(=O)c1cc2ccccc2n1C | Human immunodeficiency virus type 1 integrase (Human immunodeficiency virus 1) | 2 |

----------
molecular target: Human immunodeficiency virus type 1 integrase (Human immunodeficiency virus 1, UniProt Q7ZJM1); assay: Inhibitory concentration against HIV-1 integrase mediated 3' processing reaction
pIC50: −log10 of the molar value.
endpoint: pIC50

| entry smiles | reading qualifier | number |
| --- | --- | --- |
| COC(=O)C(=O)CC(=O)c1cc2cc3c(cc2n1C)OCO3 | = | 4.00 |
| COC(=O)C(=O)CC(=O)c1cc2cc3c(cc2n1Cc1ccccc1)OCO3 | = | 4.00 |
| Cn1cc(/C(O)=C/C(=O)C(=O)O)c2cc3c(cc21)OCO3 | = | 4.00 |
| Cn1c(/C(O)=C/C(=O)C(=O)O)cc2cc3c(cc21)OCO3 | = | 4.96 |
| O=C(O)C(=O)/C=C(\O)c1cn(Cc2ccccc2)c2ccccc12 | = | 4.92 |
| O=C(O)C(=O)/C=C(\O)c1cc2cc3c(cc2n1Cc1ccccc1)OCO3 | = | 4.46 |
| CCn1c(/C(O)=C/C(=O)C(=O)O)cc2cc3c(cc21)OCO3 | = | 4.26 |
| Cn1c(/C(O)=C/C(=O)C(=O)O)cc2ccccc21 | = | 4.30 |
| CCn1cc(C(=O)CC(=O)C(=O)OC)c2ccccc21 | < | 4.00 |
| CCn1cc(/C(O)=C/C(=O)C(=O)O)c2ccccc21 | = | 4.03 |
| Cn1cc(/C(O)=C/C(=O)C(=O)O)c2ccccc21 | = | 4.00 |
| COC(=O)C(=O)CC(=O)c1cn(C)c2cc3c(cc12)OCO3 | < | 4.00 |
| COC(=O)C(=O)CC(=O)c1cc2ccccc2n1C | = | 4.00 |
| CCn1c(C(=O)CC(=O)C(=O)OC)cc2cc3c(cc21)OCO3 | = | 4.07 |
| O=C(O)C(=O)/C=C(\O)c1cc2ccccc2n1Cc1ccccc1 | = | 4.70 |
| CCn1cc(/C(O)=C/C(=O)C(=O)O)c2cc3c(cc21)OCO3 | = | 4.35 |
| CCn1c(/C(O)=C/C(=O)C(=O)O)cc2ccccc21 | = | 4.80 |

----------
experiment: Therapeutic index is the ratio of CC50 to that of EC50; settings: human; read-out: Therapeutic index
selectivity ratio values for the molecules below.

| entry smiles | selectivity ratio |
| --- | --- |
| CCn1cc(/C(O)=C/C(=O)C(=O)O)c2ccccc21 | 12 |
| CCn1cc(C(=O)CC(=O)C(=O)OC)c2ccccc21 | > 10.5 |
| Cn1cc(/C(O)=C/C(=O)C(=O)O)c2ccccc21 | > 5.4 |
| CCn1cc(/C(O)=C/C(=O)C(=O)O)c2cc3c(cc21)OCO3 | > 1.6 |

----------
biological target: Human immunodeficiency virus type 1 integrase (Human immunodeficiency virus 1); test: Inhibitory concentration against HIV-1 integrase mediated strand transfer reaction
pIC50: −log10 of the molar value.
pIC50 values for the molecules below.
endpoint: pIC50

| entry smiles | number |
| --- | --- |
| O=C(O)C(=O)/C=C(\O)c1cc2cc3c(cc2n1Cc1ccccc1)OCO3 | 5.70 |
| Cn1cc(/C(O)=C/C(=O)C(=O)O)c2ccccc21 | 5.70 |
| Cn1c(/C(O)=C/C(=O)C(=O)O)cc2cc3c(cc21)OCO3 | 5.70 |
